All values here come from paper PMC11538706.

Assay: PK analysis: Cmax and AUC from PK models fitted to serum and ISF concentrations
Assay type: in vivo, Male Sprague Dawley rats
Conditions: male, Sprague Dawley, rat, in vivo, iv, 45 mg/kg, VAN, Rat # 2, dose 45 mg/kg i.v.; read-out: Serum Cmax

COMPOUND | U | Cmax
CN[C@H](CC(C)C)C(=O)N[C@H]1C(=O)N[C@@H](CC(N)=O)C(=O)N[C@H]2C(=O)N[C@H]3C(=O)N[C@H](C(=O)N[C@H](C(=O)O)c4cc(O)cc(O)c4-c4cc3ccc4O)[C@H](O)c3ccc(c(Cl)c3)Oc3cc2cc(c3O[C@@H]2O[C@H](CO)[C@@H](O)[C@H](O)[C@H]2O[C@H]2C[C@](C)(N)[C@H](O)[C@H](C)O2)Oc2ccc(cc2Cl)[C@H]1O [VAN, vancomycin] | µM | 239

* * *

Assay: PK analysis: Cmax and AUC from PK models fitted to serum and ISF concentrations
Assay type: in vivo, Male Sprague Dawley rats
Conditions: male, Sprague Dawley, rat, serum, iv, 100 mg/kg, GEN, Rat # 6, dose 100 mg/kg i.v.; read-out: Serum AUC (converted)
READOUT: AUC (µM·h)

COMPOUND | READOUT | RECORDED_MEASUREMENT
CNC(C)C1CCC(N)C(OC2C(N)CC(N)C(OC3OCC(C)(O)C(NC)C3O)C2O)O1 (stereo not shown) | AUC | 3380

* * *

Test: PK analysis: Cmax and AUC from PK models fitted to serum and ISF concentrations
Assay type: in vivo, Male Sprague Dawley rats
Conditions: male, Sprague Dawley, rat, serum, iv, 100 mg/kg, GEN, Rat # 1, dose 100 mg/kg i.v.; read-out: Serum AUC (converted)
Description: The estimation of PK parameters, such as the area under the time‐concentration level curve (AUC) and the peak concentrations (Cmax) was performed using two PK models describing the observed patterns of serum and ISF concentrations (Figure S13, Supporting Information) and the Spearman correlation test was used to assess the correlation between PK parameters in serum and ISF.^[ [53] ^] […]

MOLECULE | AUC, µM·h
CNC(C)C1CCC(N)C(OC2C(N)CC(N)C(OC3OCC(C)(O)C(NC)C3O)C2O)O1 (stereo not shown) [GEN, gentamicin] | 2410

* * *

Test: PK analysis: Cmax and AUC from PK models fitted to serum and ISF concentrations
Assay type: in vivo, Male Sprague Dawley rats
Settings: male, Sprague Dawley, rat, ISF, iv, 50 mg/kg, GEN, Rat # 5, dose 50 mg/kg i.v.; read-out: ISF Cmax

MOLECULE | U | Cmax
CNC(C)C1CCC(N)C(OC2C(N)CC(N)C(OC3OCC(C)(O)C(NC)C3O)C2O)O1 (stereo not shown) [GEN, gentamicin] | µM | 387
